Kindly supply the reported logD values for the records listed here.
Test: physchem
Conditions: octan-1-ol/water, pH 7.4, LogD7.4
Lab note: jot down the number only; don't add units.

Short answer for "NC(=O)Nc1cc(-c2ccccc2)sc1C(N)=O" : logD was 2.43

Short answer for "CCc1[nH]nc(NC(=O)Cc2ncc(Oc3ccnc4cc(OC)c(OC)cc34)cc2OC)c1C" : logD was 2.79

Short answer for "CSc1nc(-c2ccccc2)nn1Cc1ccccc1" : logD was 3.83

Short answer for "Nc1nc2cc3c(cc2s1)CCN(Cc1cnc[nH]1)CC3" : logD was -0.12

Short answer for "CN(C(=O)Cc1ccc(O)cc1)C1CCN(CCC(c2ccccc2)c2ccccc2)CC1" : logD was 3.3

Short answer for "CC[C@@]1(O)C(=O)OCc2c1cc1n(c2=O)Cc2cc3c(CN(C)C)c(O)ccc3nc2-1" : logD was 0.31

Short answer for "CC(C)COc1cc(OC(C)C)cc(C(=O)Nc2ccc(C(=O)O)cn2)c1" : logD was 1.6

Short answer for "Cc1nc(C)c(-c2ccc3c(c2)CC[C@]32CC[C@@H](Cc3nnn[nH]3)CC2)nc1C(N)=O" : logD was 2

Short answer for "Fc1cccc(COc2ccc(Nc3ncnc4ccc(-c5cccc(N6CCOCC6)c5)cc34)cc2Cl)c1" : logD was 3.2

Short answer for "COCCNC(=O)c1ccc(Nc2ncc3cc(-c4ccncc4OC)ccc3n2)cc1" : logD was 3.14

Short answer for "CC(C)C[C@@H](CO)NS(=O)(=O)c1ccc(Cl)s1" : logD was 2.8

Short answer for "COc1ccc(-c2nc3c(NCCCNC(=O)C4CCCC4)c(C(N)=O)cnc3[nH]2)cc1" : logD was 3.13

Short answer for "COc1ccc(C(=O)Nc2cccc(NC(=O)c3cccc(N(C)C)c3)c2)cc1OC" : logD was 3.67

Short answer for "Oc1ncnc2scc(-c3ccsc3)c12" : logD was 2.25

Short answer for "COc1cc2ncc(C(N)=O)c(Nc3ccc(C)cc3F)c2cc1OC" : logD was 3.34

Short answer for "Cn1cc(C#N)cc1-c1c2c(=O)n(CC#CCn3cncn3)c(=O)n(CC3CC3)c2nn1Cc1ccnc2ccc(Cl)cc12" : logD was 3.43

Short answer for "N=C(N)Nc1ccc(C(=O)Oc2ccc([N+](=O)[O-])cc2)cc1" : logD was 0.5

Short answer for "O=C(NCCCNc1nc(Nc2cccc(NC(=O)N3CCCC3)c2)ncc1Br)c1cccs1" : logD was 4.13

Short answer for COCCC(C)n1nc(C)c(C(=O)N[C@@H](C)C(C)(C)C)c1NS(=O)(=O)c1ccc(C)cc1 (stereo not given in full) : logD was 0.78

Short answer for CC(C)C(NC(=O)Cn1c(-c2ccccc2)ccc(NC(=O)NCc2ccc[n+]([O-])c2)c1=O)C(=O)C(F)(F)F (stereo not given) : logD was 1.48

* * *

Assay: in vitro
Conditions: SD, HW or BN, rat, plasma
Field 'label' (enum: Criterion met / Criterion not met). Set to Criterion met when fraction unbound at 5 h is strictly under 0.02; else Criterion not met.

Prompt line: Strictly below 0.02 in fraction unbound at 5 h? "CC1(C)[C@@H]2CC[C@@]1(CS(=O)(=O)N1CCN(c3ccc(C(F)(F)F)cn3)CC1)C(=O)C2"
Response line: Criterion met

Prompt line: Strictly below 0.02 in fraction unbound at 5 h? "O=C(O)CCn1c2c(c3ccccc31)C[C@H](NS(=O)(=O)c1ccc(F)cc1)CC2"
Response line: Criterion not met

Prompt line: Strictly below 0.02 in fraction unbound at 5 h? "C[C@@H]1CN(c2ccc3c(n2)NC(=O)CO3)[C@H](c2ccccc2)CO1"
Response line: Criterion not met

Prompt line: Strictly below 0.02 in fraction unbound at 5 h? "NC(=O)c1cncc(-c2ccc([C@H]3CC[C@H](CCO)CC3)cc2)n1"
Response line: Criterion met

Prompt line: Strictly below 0.02 in fraction unbound at 5 h? "Cc1ccc(C)c(OCCCC(C)(C)C(=O)O)c1"
Response line: Criterion met

* * *

Experiment: in vitro
Details: human, plasma, PPB
reported_property: fraction unbound at 5 h
Lab note: jot down the number only; don't add units.

Short answer for "O=C(Nc1ccc(Cl)c(C(=O)Nc2cncs2)c1)c1cccc(C(F)(F)F)c1" : fraction unbound at 5 h was 0.004

Short answer for "CC(C)[C@H](O)C(=O)N[C@@H](C)C(=O)N[C@@H]1C(=O)N(C)CCc2ccccc21" : fraction unbound at 5 h was 0.803

Short answer for "Cc1cn([C@H]2CCCN(Cc3ccc(C(=O)O)c(Oc4cccc(Cl)c4)c3)C2)c(=O)[nH]c1=O" : fraction unbound at 5 h was 0.0268

Short answer for "COc1ccccc1C(=O)Nc1ccc(Cc2ccncc2)cc1" : fraction unbound at 5 h was 0.0024

Short answer for "CC(=O)Nc1ccc2ccn(-c3cc(NC4COC4)n4ncc(C#N)c4n3)c2c1" : fraction unbound at 5 h was 0.124

Short answer for "Cc1ccc(S(=O)(=O)Nc2c(C(=O)NCC(C)(C)C)c(C)nn2-c2ccccc2)cc1" : fraction unbound at 5 h was 0.0082

Short answer for "COc1ccc(CCC[N+](C)(CCCc2ccc(OC)cc2)CCNC(=O)c2nc(Cl)c(N)nc2N)cc1" : fraction unbound at 5 h was 0.163

Short answer for "CC(C)(C)OC(=O)NCCCSC[C@H]1O[C@@H](n2cnc3c(N)ncnc32)[C@H](O)[C@@H]1O" : fraction unbound at 5 h was 0.236

Short answer for "Cc1ccc(CO)cc1N(c1ccnc(Nc2cc(N3CCOCC3)cc(S(C)(=O)=O)c2)n1)C(C)C" : fraction unbound at 5 h was 0.0409

Short answer for "Cc1cn([C@H]2CCCN(S(=O)(=O)c3ccc(C(=O)O)c(Oc4cccc(Cl)c4)c3)C2)c(=O)[nH]c1=O" : fraction unbound at 5 h was 0.04

Short answer for "Cc1ccc(NC(=O)c2cccc(C(C)(C)C#N)c2)cc1Nc1ccc2ncn(C)c(=O)c2c1" : fraction unbound at 5 h was 0.0039

Short answer for "CC[C@@H](c1ccc(C(=O)O)c(Oc2cccc(Cl)c2)c1)N1CCC[C@H](n2cc(C)c(=O)[nH]c2=O)C1" : fraction unbound at 5 h was 0.0383

Short answer for "O=C(NCC1(O)CCCCCC1)c1cc(-n2ncc(=O)[nH]c2=O)ccc1Cl" : fraction unbound at 5 h was 0.24

Short answer for "Cc1cn([C@H]2CCCN(S(=O)(=O)c3ccc(O)c(Oc4ccccc4)c3)C2)c(=O)[nH]c1=O" : fraction unbound at 5 h was 0.062

Short answer for "COc1ccc2ncc(=O)n(CCN3CC[C@@H](NCc4ccc5c(n4)NC(=O)CO5)[C@@H](F)C3)c2c1" : fraction unbound at 5 h was 0.244

Short answer for "Cc1c(Sc2ccc(Cl)cc2)c2c(NS(C)(=O)=O)cccc2n1CC(=O)O" : fraction unbound at 5 h was 0.0104

Short answer for "O=c1[nH]c2c(O)ccc([C@@H](O)CNCCCSCCOCCc3cccc4ccccc34)c2s1" : fraction unbound at 5 h was 0.0067

Short answer for "COc1ccccc1O[C@@H](c1ccccc1)[C@@H]1CNCCO1" : fraction unbound at 5 h was 0.309

* * *

Experiment: physchem
reported_property: pKa
Lab note: jot down the number only; don't add units.

Short answer for "CCc1nc2c(C)cc(C)nc2[nH]1" : pKa was 5.5

Short answer for "COc1ccc(CNc2cc(C)ccn2)c(O)c1" : pKa was 6.8

Short answer for "O=C(NC[C@@H](O)CN1CCC(Oc2ccc(Cl)c(Cl)c2)CC1)c1c[nH]c(=O)cc1C(F)(F)F" : pKa was 7.7

Short answer for "c1ccc(CSc2nc3ccccc3o2)nc1" : pKa was 4.3

Short answer for "O=C(O)[C@@H](Cc1ccccc1)N1CCC(CN2CCC(Oc3ccc(Cl)c(Cl)c3)CC2)CC1" : pKa was 9.3

Short answer for [O-][S+](Cc1ccccn1)c1nc2ccccc2[nH]1 (stereo unspecified) : pKa was 3.1

Short answer for "COc1ccc(CCN2CCC(Nc3nc4ccccc4n3Cc3ccc(F)cc3)CC2)cc1" : pKa was 9.62

Short answer for NC1=NC(c2ccccc2)Nc2ccccc21 (stereo unspecified) : pKa was 9.83

Short answer for "O=C(NCC12CC3CC(CC(C3)C1)C2)c1cc(N2CCNCC2)ncc1Cl" : pKa was 8.5

Short answer for NC1CCc2cc(O)c(O)cc2C1 (stereo unspecified) : pKa was 10.5

Short answer for "O=C(CCCN1CCC(O)(c2ccc(Cl)cc2)CC1)c1ccc(F)cc1" : pKa was 8.75

* * *

Test: in vitro
Details: SD, HW or BN, rat, plasma
Field 'label' (enum: Condition met / Condition not met). Set to Condition met when fraction unbound at 5 h is strictly under 0.03; else Condition not met.

Prompt line: Strictly below 0.03 in fraction unbound at 5 h? "COc1ccccc1CN(C(C)=O)c1cnccc1Oc1ccccc1"
Response line: Condition not met

Prompt line: Strictly below 0.03 in fraction unbound at 5 h? "Cc1ncccc1Oc1ncnc(OC2CCN(C(=O)OC(C)C)CC2)c1C"
Response line: Condition not met

Prompt line: Strictly below 0.03 in fraction unbound at 5 h? "CCc1nc(N)nc(N)c1-c1ccc(Cl)cc1"
Response line: Condition not met

Prompt line: Strictly below 0.03 in fraction unbound at 5 h? "C[C@]12Cc3cnn(-c4ccc(F)cc4)c3C=C1CC[C@@]2(O)CCc1ccc(F)cc1C(N)=O"
Response line: Condition met

Prompt line: Strictly below 0.03 in fraction unbound at 5 h? COc1ccc(C2(c3ccc(F)c(-c4cccnc4F)c3)N=C(N)N(C)C2=O)cc1C (centres undefined)
Response line: Condition met

Prompt line: Strictly below 0.03 in fraction unbound at 5 h? "O=C1COc2c(CCNCCN(C(=O)CCNCCc3ccc(Cl)c(Cl)c3)C3CCCCC3)ccc(O)c2N1"
Response line: Condition not met

Prompt line: Strictly below 0.03 in fraction unbound at 5 h? "Cc1nc2n(c(=O)c1CCN1CCC(c3noc4cc(F)ccc34)CC1)CCCC2"
Response line: Condition not met

Prompt line: Strictly below 0.03 in fraction unbound at 5 h? "O=C(CCCN1CCC(O)(c2ccc(Cl)cc2)CC1)c1ccc(F)cc1"
Response line: Condition not met
